Tested on: production of Interleukin-1 (IL-1)
testName: Inhibitory activity on the production of Interleukin-1 (IL-1) in LPS-stimulated human peripheral blood monocyte
Type: cell-based
experimentalSetup: 48 h; purified human peripheral blood monocyte, LPS 1 μg/10^4 cells, 2 days at 37° C., IL-1β ELISA of supernatant; read-out: IC50 (inhibition of IL-1 production)
Procedure: Purified human peripheral blood monocyte were stimulated with bacterial lipopolysaccharide (1 μg/10^4 cells) in the absence or presence of appropriately diluted test compound for 2 days at 37° C. in a humidified 5% CO2 atmosphere. Culture supernatants were tested for IL-1 ELISA assay. […] IL-1 levels were quantified by a commercial ELISA kit (Ohtsuka assay, Japan) using a sandwich technique. […]
// reported IC50 per item
recordedMetric: IC50 (nM)

1. Fc1ccc(-c2nn3c(c2-c2ccncc2)NN(C2CCCCC2)CC3)cc1 ... 88
2. CC(C)(C)CN1CCn2nc(-c3ccc(F)cc3)c(-c3ccncc3)c2N1 ... 92

###

System: production of tumor necrosis factor (TNF)
testName: Inhibitory activity on the production of tumor necrosis factor (TNF) in LPS-stimulated human peripheral blood monocyte
Assay type: cell-based
experimentalSetup: 48 h; purified human peripheral blood monocyte, LPS 1 μg/10^4 cells, 2 days at 37° C., TNF ELISA of supernatant; read-out: IC50 (inhibition of TNF production)
pIC50: −log10 of the molar value.
recordedMetric: pIC50

1. Fc1ccc(-c2nn3c(c2-c2ccncc2)NN(C2CCCCC2)CC3)cc1 ... 6.96
2. CC(C)(C)CN1CCn2nc(-c3ccc(F)cc3)c(-c3ccncc3)c2N1 ... 7.04
